Reference source for all entries: PubChem BioAssay (NCI)

tested on: SF-295 CNS; experiment: NCI-60 one-dose screen, 48 h; conditions: 10 µM unless noted
The panel holds about 83,000 compounds, 20% with a hit somewhere; the sample as a whole holds those more often. Active and inactive are the calls of the source. Rule for the calls: active = growth percent below 10; inactive = the rest.
Write down one outcome, taken from active, inactive

Cc1cccc2nnc(-c3ccccc3)n12: inactive
N/C(=N\C(N)=N\c1nc2ccccc2s1)c1ccnc(Cl)c1: inactive
O=C(CSc1ncc(-c2ccccc2)n1-c1ccccc1)Nc1ccc(-c2nc3ccccc3s2)cc1: inactive

Task: Record lookup: outcome of this test for `COc1ccc(C(=O)COc2ccc(/C=C3\Oc4ccc5ccccc5c4C3=O)cc2)cc1` ?
Result: inactive

Task: Status in this test for `O=[N+]([O-])c1ccc(NS(=O)(=O)c2ccc(Cl)c(Cl)c2)cc1` ?
Result: inactive

Task: Recorded call for `COc1ccc(/C=C2/SC(=Nc3c(C)nn(-c4ccccc4)c3N)NC2=O)cc1` ?
Result: active

Task: Tell me the assay call for `COc1ccc(C(=O)COc2cccc(/C=C3\COc4ccc5ccccc5c4C3=O)c2)cc1` please.
Result: inactive

Task: Could you check what this test reported for O=c1ccn(C2CC=C(CO)O2)c(=O)[nH]1 (stereo unspecified) ?
Result: inactive

Task: What was the test verdict on `CC(=O)Nc1ccc(C(=O)COc2cccc(/C=C3\CCc4ccccc4C3=O)c2)cc1` ?
Result: inactive
